- study-target: SARS-CoV-2 full length spike protein, wild type, expressed on the surface of CHO cells (SARS-CoV-2, UniProt P0DTC2 14-1273)
test-readout: median fluorescence fold over isotype control (fold over isotype)
Use fold over isotype as the unit, but write only the number.

Example binders with recorded median fluorescence fold over isotype control:
binder	meas-value
antibody 543 (antibody, V domains shown) VH: EVQLVESGGGLVQPGRSLRLSCAASGFTFHDYAMHWVRQAPGKGLEWVSGISWNSGSIGYADSVKGRFTISRDNAKNSLYLQMNSLRAEDTALYYCAKDTFGSSSWYRGDSYYYYGMDVWGQGTTVTVSS VL: QSALTQPASVSGSPGQSITISCTGTSSDVGGYNYVSWYQQHPGKAPKLMIYEVSNRPSGVSNRFSGSKSGNTASLTISGLQAEDEADYYCSSYTSSSTQRYVVFGGGTKLTVL	13.3
antibody 533 (antibody, V domains shown) VH: GVQLVESGGVVVQPGGSLRLSCAASGFSFDDYTMHWVRQAPGKGLEWVSLVSWDGGTTYYTDSVKGRFTISRDNSKNSLYLQMNSLRTEDTALYFCAKDSGRIVPAATFDYWGQGTLVTVSS VL: DIQMTQSSSSLSASVGDRVTITCRASQDISNYLAWFQQKPGKAPKSLIYAASSLQSGVPSKFSGSGSGTDFTLTISSLQPEDFATYYCQQYYTYPLTFGGGTKVEIK	4.31
antibody 546 (antibody, V domains shown) VH: QVQLVESGGGVVQPGRSLRLSCAASGFTFSSYGMHWVRQAPGKGLEWVAVIWYDGSNKYYADSVKGRFTISRDNSKNTLYLQMNSLRAEDTAVYYCARNCGGDCVAGDGFDYWGQGTLVTVSS VL: DIQMTQSPSSLSASVGDRVTITCRASQSISSYLNWYQQKPGKAPNLLIYAASSLQSGVPSRFSGSGSGTDFTLTISSLQPEDFATYYCQQSYSALTWTFGQGTKVEIK	19.3
antibody 496 (antibody, V domains shown) VH: QVQLVQSGAEVKKPGASVKVSCKASGYTFTDYYIHWVRQAPGQGLEWMGWINPNSGGTNYAQKFQGRLTMTRDTSISTAYMELSRLRSDDTAVYYCARVYSMFREFIINPYYYYYGLDVWGQGTTVTVSS VL: QSALTQPASVSGSPRQSITISCTGTSSDVGSYNLVSWYQQHPGKAPKLMIYEGSKRPSGVSNRFSGSKSGNTASLAISGLQAEDEANYYCCSYAGSSTLVFGGGTKLTVL	19.7

Here is another binder to look at.
Per the record, antibody 492 (antibody, V domains shown) VH: QVQLVESGGGVVQPGRSLRLSCAASGFTFSSYGMHWVRQAPGKGLEWVAVISYDGSNKYYADSVKGRFTISRDNSKNTLYLQMNSLRAEDTAVYYCAKDGILWWWWGYFDYWGQGTLVTVSS VL: QSVLTQPPSVSGAPGQRVTISCTGSSSNIGAGFDVHWYQQLPGTAPKLLIYGNSNRPSGVPDRFSGSKSGTSASLAITGLQAEDEADYYCQSYDSSLSVVFGGGTKLTVL has median fluorescence fold over isotype control of 9.25
